Target: T1, purified recombinant human α5β1 integrin heterodimer, 6×His tagged (rh-α5β1); Acro Biosystems, cat. no. … (human, UniProt P08648 42-995; P05556 21-728)
T1 construct: bought recombinant heterodimer; also called rh-α5β1-6×His tagged protein; His-tagged-α5β1
T1 sequence (P08648 42-995 limits assumed, form in doubt, chain 1 of 2): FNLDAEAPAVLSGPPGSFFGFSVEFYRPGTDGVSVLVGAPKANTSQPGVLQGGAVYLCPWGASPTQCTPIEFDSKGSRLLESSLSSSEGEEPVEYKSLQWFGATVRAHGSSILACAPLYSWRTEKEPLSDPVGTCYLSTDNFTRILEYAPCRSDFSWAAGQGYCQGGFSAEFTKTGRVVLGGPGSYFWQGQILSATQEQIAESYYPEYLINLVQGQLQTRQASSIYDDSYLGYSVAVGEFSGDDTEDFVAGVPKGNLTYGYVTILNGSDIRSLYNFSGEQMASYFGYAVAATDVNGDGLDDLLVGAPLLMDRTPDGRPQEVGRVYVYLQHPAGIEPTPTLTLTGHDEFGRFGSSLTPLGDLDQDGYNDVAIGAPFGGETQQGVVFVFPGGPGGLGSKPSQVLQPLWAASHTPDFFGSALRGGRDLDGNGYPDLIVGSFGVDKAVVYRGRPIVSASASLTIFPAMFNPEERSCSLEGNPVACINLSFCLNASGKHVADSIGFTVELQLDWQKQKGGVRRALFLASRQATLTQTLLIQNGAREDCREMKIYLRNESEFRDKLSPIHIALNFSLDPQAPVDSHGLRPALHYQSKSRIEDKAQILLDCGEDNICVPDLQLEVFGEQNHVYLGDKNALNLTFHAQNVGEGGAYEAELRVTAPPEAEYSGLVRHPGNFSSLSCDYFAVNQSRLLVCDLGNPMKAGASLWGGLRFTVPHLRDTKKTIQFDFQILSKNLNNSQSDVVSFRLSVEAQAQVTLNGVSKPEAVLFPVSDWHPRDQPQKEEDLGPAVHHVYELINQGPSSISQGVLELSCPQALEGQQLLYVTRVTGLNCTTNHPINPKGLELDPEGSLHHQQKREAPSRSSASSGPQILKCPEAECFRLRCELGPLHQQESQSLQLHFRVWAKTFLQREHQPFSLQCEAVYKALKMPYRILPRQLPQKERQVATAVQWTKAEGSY
T1 sequence (P05556 21-728 limits assumed, form in doubt, chain 2 of 2): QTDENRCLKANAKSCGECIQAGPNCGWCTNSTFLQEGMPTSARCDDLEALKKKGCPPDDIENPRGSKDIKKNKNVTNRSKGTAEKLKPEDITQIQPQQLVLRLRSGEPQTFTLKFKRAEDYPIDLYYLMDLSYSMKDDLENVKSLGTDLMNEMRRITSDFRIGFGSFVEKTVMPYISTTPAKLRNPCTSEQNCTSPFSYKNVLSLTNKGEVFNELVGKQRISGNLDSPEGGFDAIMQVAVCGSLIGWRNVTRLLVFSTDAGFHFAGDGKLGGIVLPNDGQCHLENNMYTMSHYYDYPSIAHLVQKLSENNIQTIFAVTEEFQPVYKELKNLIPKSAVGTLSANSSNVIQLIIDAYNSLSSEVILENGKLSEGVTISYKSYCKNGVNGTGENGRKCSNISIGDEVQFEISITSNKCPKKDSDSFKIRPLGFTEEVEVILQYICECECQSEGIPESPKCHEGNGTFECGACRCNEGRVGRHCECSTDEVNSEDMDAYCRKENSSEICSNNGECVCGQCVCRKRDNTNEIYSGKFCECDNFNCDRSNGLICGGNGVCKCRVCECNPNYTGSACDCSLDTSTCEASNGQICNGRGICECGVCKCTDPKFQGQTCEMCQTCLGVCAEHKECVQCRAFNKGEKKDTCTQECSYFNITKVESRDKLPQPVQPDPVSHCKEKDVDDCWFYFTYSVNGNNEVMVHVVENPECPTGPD
Assay: BLI (Octet), supernatant mAb on anti-mouse IgG Fc sensor, 20 nM rh-α5β1
pKd: −log10 of the molar value.
Measured pKd of individual entries
Recorded Metric: pKd

- Binder: "A2-7A05 (antibody, V domains shown, mouse hybridoma antibody; also called A2-7A05 (hybridoma)) VH: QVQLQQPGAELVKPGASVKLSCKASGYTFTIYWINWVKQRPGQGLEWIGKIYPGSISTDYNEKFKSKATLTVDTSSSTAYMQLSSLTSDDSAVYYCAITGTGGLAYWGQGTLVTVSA VL: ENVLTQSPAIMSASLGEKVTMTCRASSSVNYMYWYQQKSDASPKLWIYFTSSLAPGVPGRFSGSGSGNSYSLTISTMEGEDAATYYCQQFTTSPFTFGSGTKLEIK"
  Recorded Metric: "pKd"
  Result: 9.10
- Binder: "A-15B08 (antibody, V domains shown, mouse hybridoma antibody; also called A-15B08 (hybridoma)) VH: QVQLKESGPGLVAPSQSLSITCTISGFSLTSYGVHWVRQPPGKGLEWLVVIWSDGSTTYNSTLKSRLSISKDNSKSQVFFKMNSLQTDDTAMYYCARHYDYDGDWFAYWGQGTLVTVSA VL: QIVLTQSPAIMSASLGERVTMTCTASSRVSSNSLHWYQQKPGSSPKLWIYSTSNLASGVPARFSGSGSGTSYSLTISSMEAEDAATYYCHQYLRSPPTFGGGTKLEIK"
  Recorded Metric: "pKd"
  Result: 8.88
- Binder: "A2-9A11 (antibody, V domains shown, mouse hybridoma antibody) VH: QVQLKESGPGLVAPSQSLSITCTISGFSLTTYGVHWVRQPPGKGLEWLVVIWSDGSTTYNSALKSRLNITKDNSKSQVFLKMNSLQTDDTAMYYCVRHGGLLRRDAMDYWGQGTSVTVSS VL: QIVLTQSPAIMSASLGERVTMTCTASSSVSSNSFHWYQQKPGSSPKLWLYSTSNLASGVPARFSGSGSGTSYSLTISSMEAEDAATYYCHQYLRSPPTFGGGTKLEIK"
  Recorded Metric: "pKd"
  Result: 8.30
- Binder: "A2-5D10 (antibody, V domains shown, mouse hybridoma antibody) VH: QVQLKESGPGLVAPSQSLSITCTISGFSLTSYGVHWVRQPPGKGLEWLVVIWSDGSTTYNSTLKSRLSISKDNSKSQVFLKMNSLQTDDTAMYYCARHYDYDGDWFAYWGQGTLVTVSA VL: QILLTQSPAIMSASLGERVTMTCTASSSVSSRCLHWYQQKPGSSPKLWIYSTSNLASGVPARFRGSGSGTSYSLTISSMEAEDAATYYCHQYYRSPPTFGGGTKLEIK"
  Recorded Metric: "pKd"
  Result: 8.63
- Binder: "A2-3B06 (antibody, V domains shown, mouse hybridoma antibody) VH: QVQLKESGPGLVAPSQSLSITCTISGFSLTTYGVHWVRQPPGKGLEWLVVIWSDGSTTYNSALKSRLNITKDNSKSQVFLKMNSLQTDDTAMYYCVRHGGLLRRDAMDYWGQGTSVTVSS VL: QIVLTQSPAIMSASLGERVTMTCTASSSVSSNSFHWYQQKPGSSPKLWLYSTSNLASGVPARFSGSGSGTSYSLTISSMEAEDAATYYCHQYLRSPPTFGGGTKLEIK"
  Recorded Metric: "pKd"
  Result: 8.32
- Binder: "A2-8H11 (antibody, V domains shown, mouse hybridoma antibody) VH: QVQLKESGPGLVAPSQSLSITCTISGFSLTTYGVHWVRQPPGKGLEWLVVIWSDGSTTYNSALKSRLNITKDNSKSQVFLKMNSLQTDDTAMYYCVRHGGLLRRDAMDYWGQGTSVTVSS VL: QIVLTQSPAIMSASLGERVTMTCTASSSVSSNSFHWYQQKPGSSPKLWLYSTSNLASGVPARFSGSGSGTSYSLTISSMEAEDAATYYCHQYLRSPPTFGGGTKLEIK"
  Recorded Metric: "pKd"
  Result: 8.32
- Binder: "A-4G02 (antibody, V domains shown, mouse hybridoma antibody) VH: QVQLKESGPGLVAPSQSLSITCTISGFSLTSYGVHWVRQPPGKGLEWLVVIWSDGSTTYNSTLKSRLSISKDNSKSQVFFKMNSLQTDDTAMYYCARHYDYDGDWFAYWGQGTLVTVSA VL: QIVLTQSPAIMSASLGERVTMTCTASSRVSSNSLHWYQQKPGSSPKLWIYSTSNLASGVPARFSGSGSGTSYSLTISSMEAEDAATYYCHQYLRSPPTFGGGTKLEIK"
  Recorded Metric: "pKd"
  Result: 8.91
- Binder: "C-14D12 (antibody, V domains shown, mouse hybridoma antibody; also called C-14D12 (hybridoma)) VH: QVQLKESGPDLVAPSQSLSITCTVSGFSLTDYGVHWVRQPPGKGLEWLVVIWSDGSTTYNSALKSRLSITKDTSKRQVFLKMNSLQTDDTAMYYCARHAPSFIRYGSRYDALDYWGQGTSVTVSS VL: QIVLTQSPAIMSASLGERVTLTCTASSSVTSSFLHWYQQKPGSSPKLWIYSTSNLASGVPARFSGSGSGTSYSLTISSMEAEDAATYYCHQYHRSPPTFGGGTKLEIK"
  Recorded Metric: "pKd"
  Result: 9.42
- Binder: "A-14G08 (antibody, V domains shown, mouse hybridoma antibody) VH: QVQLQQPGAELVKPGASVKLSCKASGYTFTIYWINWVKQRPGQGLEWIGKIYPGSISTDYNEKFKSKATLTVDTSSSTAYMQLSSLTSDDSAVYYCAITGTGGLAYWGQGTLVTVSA VL: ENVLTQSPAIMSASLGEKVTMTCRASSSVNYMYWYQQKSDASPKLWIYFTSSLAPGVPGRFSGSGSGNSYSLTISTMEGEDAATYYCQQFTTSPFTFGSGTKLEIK"
  Recorded Metric: "pKd"
  Result: 9.07
- Binder: "C-8G11 (antibody, V domains shown, mouse hybridoma antibody) VH: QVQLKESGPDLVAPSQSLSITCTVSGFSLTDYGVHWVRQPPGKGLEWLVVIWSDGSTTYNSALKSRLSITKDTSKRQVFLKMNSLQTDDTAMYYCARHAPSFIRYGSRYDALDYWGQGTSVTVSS VL: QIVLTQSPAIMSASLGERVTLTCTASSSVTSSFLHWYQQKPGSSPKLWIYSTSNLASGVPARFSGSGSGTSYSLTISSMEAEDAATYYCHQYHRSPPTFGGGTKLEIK"
  Recorded Metric: "pKd"
  Result: 9.35
